Items are presented alongside their recorded melting point.
Where a name gives a salt, the structure may show the parent alone.

Answered examples (3):
{"Compound": "C/C(=N\\NC(=N)N)c1ccn(S(=O)(=O)c2sc3ccc(Cl)cc3c2C)c1 (as salt: hydrochloride)", "melting point": "285 °C (dec.)"}
{"Compound": "C/C(=N\\NC(=N)N)c1ccn(S(=O)(=O)c2ccccc2)c1 (as salt: hydrochloride)", "melting point": "220 to 221 °C"}
{"Compound": "C/C(=N\\NC(=N)N)c1ccn(S(=O)(=O)c2sc(N)nc2C)c1 (as salt: hydrochloride)", "melting point": "225 °C (dec.)"}

Exam item: Given C/C(=N\NC(=N)N)c1ccn(S(=O)(=O)c2ccc(N)cc2)c1 (as salt: hydrochloride) , respond with its melting point.
Marked response: 198 to 200 °C

Exam item: Given the compound C/C(=N\NC(=N)N)c1ccn(S(=O)(=O)c2ccc(C)cc2)c1 (as salt: hydrochloride) , write its reported melting point.
Marked response: 277 to 279 °C

###

Counter-ions that a name gives are not always drawn.
The following compounds have recorded pKi on human cloned 5-HT6 receptors (Homo sapiens).
Sequence (P50406 whole entry): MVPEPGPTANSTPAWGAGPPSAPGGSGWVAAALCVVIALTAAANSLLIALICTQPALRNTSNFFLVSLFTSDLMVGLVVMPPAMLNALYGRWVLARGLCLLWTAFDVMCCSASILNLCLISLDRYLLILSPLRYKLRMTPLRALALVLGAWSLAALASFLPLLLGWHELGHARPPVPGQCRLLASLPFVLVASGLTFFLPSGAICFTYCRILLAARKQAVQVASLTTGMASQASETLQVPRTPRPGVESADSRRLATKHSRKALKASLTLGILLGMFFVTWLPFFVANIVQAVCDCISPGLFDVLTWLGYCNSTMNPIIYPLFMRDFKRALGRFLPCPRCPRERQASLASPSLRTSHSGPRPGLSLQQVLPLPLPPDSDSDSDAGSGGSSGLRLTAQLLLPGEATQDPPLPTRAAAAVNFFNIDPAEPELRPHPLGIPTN
Here pKi is given on a logarithmic scale as minus log10 of the concentration in mol/L.

Some solved entries appear below for comparison.
{"Compound": "C/C(=N\\NC(=N)N)c1ccn(S(=O)(=O)c2ccc(C)cc2)c1 [Example 15]", "pKi": 8.26}
{"Compound": "C/C(=N\\NC(=N)N)c1ccn(S(=O)(=O)c2sc(N)nc2C)c1 [Example 19]", "pKi": 8.43}
{"Compound": "C/C(=N\\NC(=N)N)c1c(C)cn(S(=O)(=O)c2ccccc2)c1C [Example 13, Hydrochloride]", "pKi": 8.22}

Now for the compound whose pKi we want.
Exam item: Provide pKi, tested on human cloned 5-HT6 receptors (Homo sapiens), for N=C(N)N/N=C1\CCCc2c1ccn2S(=O)(=O)c1ccccc1 [Example 7, Hydrochloride] .
Marked response: 7.43
